assay protocol: gradient 5% acetonitrile 3 min, to 50% in 2 min, to 85% in 15 min, held 3 min, 100 µL/min
measurement setup: column: Zorbax Extend-C18 2.1 x 50 mm; eluents: water / acetonitrile, 0.1% formic acid
Flag rule - RP-LC retention time less than 800 s flags True; the remaining entries get False.

Example entries begin here.
Cc1noc(C2CN(C(=O)Cc3noc4ccccc34)C2)n1: True
CCCn1ccc2sc(C)c(C(=O)N3CCN(c4ccccn4)CC3)c2c1=O: True
Cc1ccc(C(CNC(=O)c2cc(-c3ccc4c(c3)CCCC4)on2)N2CCN(C)CC2)o1 (stereo not given): False
C=C1C(=O)O[C@@H]2/C=C(\C)CCC=C(C)CC[C@@H]12: False

Prompt: In plain terms, does CCC1(C(=O)OC)CCc2c(cc(OC)c3ccccc23)C1=O (stereo not given) come in under 800 s for RP-LC retention time?
Completion: False

Prompt: Please answer likewise for `Cc1cc(NC(=O)Nc2cc(Cl)ccc2C)no1`
Completion: False

Prompt: Please answer likewise for `Clc1cccc(-c2ccc(CNCc3ccc4c(c3)OCO4)o2)c1`
Completion: True

Prompt: Please answer likewise for `O=C1c2ccccc2C(=O)c2nc(-c3ccccc3)c(-c3ccccc3)nc21`
Completion: False

Prompt: Please answer likewise for CN(CCCNC(=O)C1CCCN(c2ncc(-c3cccc(F)c3)cn2)C1)c1ccccc1 (stereo not given)
Completion: False

###

assay protocol: gradient 5% acetonitrile 3 min, to 50% in 2 min, to 85% in 15 min, held 3 min, 100 µL/min
measurement setup: column: Zorbax Extend-C18 2.1 x 50 mm; eluents: water / acetonitrile, 0.1% formic acid
Binning of RP-LC retention time into classes: range A = under 800 s, range B = from 800 s up to 1000 s, range C = 1000 s and over

Example entries begin here.
Cc1ccc(CNC(=O)CC2CCN(C(=O)c3[nH]c(C)c(C(=O)OC(C)C)c3C)CC2)cc1: range B
COc1ccc(-c2noc(-c3ccc(N4CCN(c5cccc(OC)c5)CC4)nc3)n2)cc1: range C
Fc1ccccc1N1CCN(c2ncccc2-c2nnc(-c3ccccc3)o2)CC1: range C
Cc1noc(-c2cccn2Cc2c(F)cccc2Cl)n1: range C
COC(=O)CN1CN(c2ccc(C)cc2)c2ncccc2S1(=O)=O: range B
O=C(c1cc(Cc2n[nH]c(=O)c3ccccc23)ccc1F)N1CCN(C(=O)C2CC2)CC1: range A

Prompt: Which band does `COC(=O)c1ccc2c(=O)n(-c3cc(F)cc(F)c3)c(N3CCCCC3)nc2c1` fall in?
Completion: range C

Prompt: Please answer likewise for CCn1cc(CN2CCC(N3C(=O)C4(CCCC4)C3c3ccccc3)CC2)cn1 (stereo not given)
Completion: range A

Prompt: Please answer likewise for CCC(=O)NCC12CCC=C1N(C)C(=O)CC2 (stereo not given)
Completion: range A

###

assay protocol: gradient 5% acetonitrile 3 min, to 50% in 2 min, to 85% in 15 min, held 3 min, 100 µL/min
measurement setup: column: Zorbax Extend-C18 2.1 x 50 mm; eluents: water / acetonitrile, 0.1% formic acid
So basically: RP-LC retention time at 700 s or higher? That is T. Lower than 700 s? That is F.

Example entries begin here.
Fc1ccccc1-c1noc(N2CCOCC2)n1: T
COc1ccc(Cl)cc1NC(=O)Cn1c(N2CCOCC2)nc(C)cc1=O: T
COc1ccc(-c2nc(N3CCCC(C)C3)c3ccccc3n2)cc1 (stereo not given): T

Turning now to a further compound:
Prompt: Determine whether this compound has RP-LC retention time no lower than 700 s: `Cc1ccn2cc(C(=O)NCc3ccc(F)cc3)nc2c1`
Completion: F

###

assay protocol: gradient 5% acetonitrile 3 min, to 50% in 2 min, to 85% in 15 min, held 3 min, 100 µL/min
measurement setup: column: Zorbax Extend-C18 2.1 x 50 mm; eluents: water / acetonitrile, 0.1% formic acid
attribute measured: RP-LC retention time (s)
Give a bare numeral; the unit s is implied.

Here's what some known entries look like.
COCCNC(=O)c1nc(-c2ccnc(N3CCCCCC3)c2)no1: 602
O=C(NCCc1c[nH]c2ccccc12)C1CCN(c2ccncc2)CC1: 610
O=C(CN1CCC2(CC1)N=C(c1ccc(Br)cc1)C(=O)N2)Nc1ccc(F)cc1: 700
COc1ccccc1-c1nc(Cn2nnc(-c3nc(-c4cccc(Cl)c4)no3)c2C)c(C)o1: 1240
CCN1CCCC1CNC(=O)c1nnc(-c2ccc(S(=O)(=O)N3CCOCC3)cc2)o1 (centres undefined): 599
CNC(=O)CCC(=O)N1c2ccccc2NC2=C(C(=O)CC(C)(C)C2)C1c1ccccc1 (centres undefined): 686
CC1CCc2nc3ncn(CC(=O)NC(C)c4ccccc4)c(=O)c3cc2C1 (centres undefined): 762
COC(=O)c1ccc2c(=O)n(-c3cccc(Cl)c3)c(N3CCSC3)nc2c1: 1110

Prompt: Data request, read-out RP-LC retention time, for `CS(=O)(=O)N1CCc2cc(C(=O)N3CCC(C(N)=O)CC3)ccc21`
Completion: 583

###

assay protocol: gradient 5% acetonitrile 3 min, to 50% in 2 min, to 85% in 15 min, held 3 min, 100 µL/min
measurement setup: column: Zorbax Extend-C18 2.1 x 50 mm; eluents: water / acetonitrile, 0.1% formic acid
attribute measured: RP-LC retention time (s)
Give a bare numeral; the unit s is implied.

CCC/C(C)=C/c1ccc(CC)cn1: 708
O=C(NCc1cccnc1)c1ccc2c(c1)NC(=O)C1CCCCN21 (stereo not given): 585
CN(CC1CCOCC1)C(=O)Nc1ccccc1C(F)(F)F: 738
O=C(NC1CCN(c2nnc3ccc(C(F)(F)F)cn23)CC1)c1cccc(F)c1: 782
Cc1cc(C)cc(NC(=O)Cn2ccc3ccc(-c4nnc(C)o4)cc32)c1: 1300

Prompt: Data request, read-out RP-LC retention time, for `COc1ccc(C)cc1NC(=O)C(=O)NCCN1CCN(c2ccccc2F)CC1`
Completion: 614

Prompt: Please answer likewise for `O=C(NCC1CCN(c2ncccn2)CC1)c1cccc(C(F)(F)F)c1`
Completion: 749

Prompt: Please answer likewise for O=C(c1ccc(Cl)cc1)N1CCCCC1CCN1CCOCC1 (stereo not given)
Completion: 637

Prompt: Please answer likewise for `CCCN1CCN(C(=O)c2nc3ccccn3c2-c2ccsc2)CC1`
Completion: 576

Prompt: Please answer likewise for `Cc1ccc(Nc2c(-c3ccc(Cl)cc3)nc3ccc(Cl)cn23)cc1`
Completion: 1060

###

Attribute: RP-LC retention time
assay protocol: gradient 5% acetonitrile 3 min, to 50% in 2 min, to 85% in 15 min, held 3 min, 100 µL/min
measurement setup: column: Zorbax Extend-C18 2.1 x 50 mm; eluents: water / acetonitrile, 0.1% formic acid
Give a bare numeral; the unit s is implied.

Here's what some known entries look like.
Cn1ncc2c(N3CCSCC3)nc(C(=O)NCc3cccs3)nc21: 778
CCCN(C(=O)Nc1cccc(C)c1C)c1nc(-c2ccc(C3CCCCC3)cc2)cs1: 619
CCn1cc(-c2ccc(F)cc2)cc1C(=O)NCc1ccccn1: 722
Cc1ccc(Cc2noc(CN3CCCC3=O)n2)cc1: 758
CN1C(=O)c2cccnc2Sc2cc(NC(=O)c3cccc(F)c3)ccc21: 790

Prompt: Data request, read-out RP-LC retention time, for O=C(c1ccsc1)N1CCCC1Cc1noc(-c2cnccn2)n1 (stereo not given)
Completion: 707

Prompt: Please answer likewise for CCc1noc(C2CCCCN2CC(=O)NCCc2cccs2)n1 (stereo not given)
Completion: 794

Prompt: Please answer likewise for `O=C(NCCCOc1cccc2cccnc12)c1ccc(F)cc1Cl`
Completion: 580

Prompt: Please answer likewise for `COc1ccc(N2CCN(c3cc(SCC(=O)Nc4ccc(OC)cc4OC)ncn3)CC2)cc1`
Completion: 962

Prompt: Please answer likewise for `COC(=O)C1=CN(c2ccc(C)cc2C)c2ccccc2S1(=O)=O`
Completion: 869

Prompt: Please answer likewise for `O=C(CCc1nc2ccccc2n(CC(=O)Nc2ccc3c(c2)OCCO3)c1=O)NCc1ccccc1`
Completion: 782

Prompt: Please answer likewise for `O=C(Cn1ccn2nc(-c3ccc(F)cc3)c(CO)c2c1=O)Nc1cc(F)cc(F)c1`
Completion: 880

###

assay protocol: gradient 5% acetonitrile 3 min, to 50% in 2 min, to 85% in 15 min, held 3 min, 100 µL/min
measurement setup: column: Zorbax Extend-C18 2.1 x 50 mm; eluents: water / acetonitrile, 0.1% formic acid
So basically: RP-LC retention time at 800 s or higher? That is true. Lower than 800 s? That is false.

Example entries begin here.
Cc1cccc(NC(=O)N2CCN(CC(=O)c3c(C)n(C)c4ccccc34)CC2)c1: false
O=c1c2ccccc2n(Cc2nc(-c3ccc(Br)cc3)no2)c(=O)n1CC1CCCO1 (centres undefined): true
O=C(CCc1cc(Cl)no1)N1CCCCC1c1noc(COCC2CC2)n1 (centres undefined): true
COc1ccc(OC)c(NC(=O)N(C)Cc2nc3cc(C(=O)N(C)C)ccc3n2C)c1: false
CN1C(=O)[C@H]2CN(Cc3cn[nH]c3-c3cccc(Br)c3)C[C@H]2C1=O: false
CCn1ncc(CN2CCCCC2CCn2cc(-c3ccccc3)nn2)c1C (centres undefined): false
CCCCNC(=O)C1CCCN(C(=O)c2[nH]c(C)c(C(=O)OC)c2C)C1 (centres undefined): false
Cc1cccc(NC(=O)N2CCC(N3CCN(Cc4ccccc4)C(=O)C3=O)CC2)c1: false

Prompt: Determine whether this compound has RP-LC retention time no lower than 800 s: `O=C(O)CCC1CCN(S(=O)(=O)c2ccccc2F)CC1`
Completion: false

Prompt: Please answer likewise for `CCCC(=O)Nc1ccc(CCc2nc3ccc(C(=O)NCCOC)cc3[nH]2)cc1`
Completion: false

Prompt: Please answer likewise for `Cc1ccn2cc(C(=O)N3CCN(c4ccccc4C)CC3)nc2c1`
Completion: true

Prompt: Please answer likewise for `Cc1nn2c(S(=O)(=O)N3CCCCC3)c(C(C)C)nc2s1`
Completion: true

Prompt: Please answer likewise for `CCCN(Cc1ccc(OC)c(OC)c1)Cc1cc(=O)n2cc(C)ccc2n1`
Completion: false

Prompt: Please answer likewise for `Cc1cccc(N2C(=O)CN(CCc3ccccc3)[C@H]3CS(=O)(=O)C[C@H]32)c1`
Completion: true

Prompt: Please answer likewise for `CCc1noc(-c2ccnc(-n3ncc(C(=O)N4CCCC4)c3C)c2)n1`
Completion: true

Prompt: Please answer likewise for `COc1ccc(-c2noc(Cc3nc(-c4ccc(C)cc4)cs3)n2)cc1`
Completion: true

Prompt: Please answer likewise for `O=C(c1ccsc1)N1CCN(c2cc(-c3cccnc3)[nH]n2)CC1`
Completion: false

Prompt: Please answer likewise for `COc1ccc(C)cc1NC(=O)Nc1c(-c2ccc(F)cc2)nc2ccccn12`
Completion: false

Prompt: Please answer likewise for `COc1cc(NS(=O)(=O)c2cc3n(c2)CCCNC3=O)cc(OC)c1`
Completion: false

Prompt: Please answer likewise for `CN(C)S(=O)(=O)N1CCN(S(=O)(=O)c2ccc(F)cc2)CC1`
Completion: false

Prompt: Please answer likewise for `Cc1ccc(NC(=O)COc2cc(C)nc(N3CCN(c4ccccc4)CC3)n2)cc1`
Completion: true
